Target: ADPRT activity of ExoA (Pseudomonas aeruginosa, UniProt P11439)
Sequence (P11439 26-638 limits assumed): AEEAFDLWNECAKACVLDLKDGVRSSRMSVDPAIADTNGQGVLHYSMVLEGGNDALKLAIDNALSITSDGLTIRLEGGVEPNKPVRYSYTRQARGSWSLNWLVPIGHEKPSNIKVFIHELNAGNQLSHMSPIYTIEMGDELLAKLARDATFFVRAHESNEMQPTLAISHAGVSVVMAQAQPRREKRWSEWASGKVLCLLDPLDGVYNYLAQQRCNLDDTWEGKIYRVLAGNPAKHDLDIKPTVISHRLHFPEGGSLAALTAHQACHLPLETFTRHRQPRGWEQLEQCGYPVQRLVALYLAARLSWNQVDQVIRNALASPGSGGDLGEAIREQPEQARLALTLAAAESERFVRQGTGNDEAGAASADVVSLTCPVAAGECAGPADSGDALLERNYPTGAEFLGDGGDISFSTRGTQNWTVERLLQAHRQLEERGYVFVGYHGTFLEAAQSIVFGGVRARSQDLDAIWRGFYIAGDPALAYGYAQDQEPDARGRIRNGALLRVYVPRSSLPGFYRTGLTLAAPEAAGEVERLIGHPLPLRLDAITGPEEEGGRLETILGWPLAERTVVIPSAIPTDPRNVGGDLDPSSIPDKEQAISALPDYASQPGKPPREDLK
Assay: biochemical
METRIC: IC50 (µM)
One number for each entry, in µM.

Query: Tell me its IC50 on ADPRT activity of ExoA (Pseudomonas aeruginosa, UniProt P11439): CCc1ccc(NC(=O)N2CC(CC)Oc3ccccc32)cc1 (stereo not shown) [exosin]
Result: 17

###

Assignment: determine reported log10(IC50) for the given compounds.
Target: ExoS ADPRT activity (Pseudomonas aeruginosa, UniProt G3XDA1)
Sequence (G3XDA1 whole entry, looked up): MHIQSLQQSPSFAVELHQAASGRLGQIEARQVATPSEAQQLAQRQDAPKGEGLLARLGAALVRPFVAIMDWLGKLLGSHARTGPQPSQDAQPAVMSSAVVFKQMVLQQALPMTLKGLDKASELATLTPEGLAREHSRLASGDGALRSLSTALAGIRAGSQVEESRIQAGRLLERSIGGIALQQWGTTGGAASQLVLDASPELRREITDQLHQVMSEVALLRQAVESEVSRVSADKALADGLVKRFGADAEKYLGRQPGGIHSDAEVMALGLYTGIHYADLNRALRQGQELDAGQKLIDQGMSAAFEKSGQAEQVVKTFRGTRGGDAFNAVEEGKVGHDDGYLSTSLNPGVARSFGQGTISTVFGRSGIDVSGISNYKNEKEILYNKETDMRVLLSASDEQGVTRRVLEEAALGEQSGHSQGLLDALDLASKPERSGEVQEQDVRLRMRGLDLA
Assay: biochemical
The common logarithm of IC50 in µM is what is listed.

// known answers, use as guide
compound=COc1cc(C)c(C(=O)O)c(O)c1 system="ExoS ADPRT activity (Pseudomonas aeruginosa, UniProt G3XDA1)" metric=log10(IC50) recorded_result=1.32
compound="COc1ccc(-c2cc(=O)c3c(O)cc(O[C@@H]4O[C@H](CO[C@@H]5O[C@@H](C)[C@H](O)[C@@H](O)[C@H]5O)[C@@H](O)[C@H](O)[C@H]4O)cc3o2)cc1O [Diosmin, reference compound]" system="ExoS ADPRT activity (Pseudomonas aeruginosa, UniProt G3XDA1)" metric=log10(IC50) recorded_result=0.48
compound="CCC1CN(C(=O)Nc2ccc(C)cc2)c2cc(Cl)ccc2O1 (stereo not drawn) [exosin-5138]" system="ExoS ADPRT activity (Pseudomonas aeruginosa, UniProt G3XDA1)" metric=log10(IC50) recorded_result=1.08
compound="CCC1CN(C(=O)Nc2cccc3c2CCCC3)c2ccccc2O1 (stereo not drawn) [exosin-5340]" system="ExoS ADPRT activity (Pseudomonas aeruginosa, UniProt G3XDA1)" metric=log10(IC50) recorded_result=2.11
compound="C=CCOC(=O)C1=C(C)NC(SCC(=O)Nc2nccs2)=C(C#N)C1c1cccs1 (stereo not drawn)" system="ExoS ADPRT activity (Pseudomonas aeruginosa, UniProt G3XDA1)" metric=log10(IC50) recorded_result=0.78

Consider now this further compound.
Query: Please look at this compound and report its log10(IC50): CCC1CN(C(=O)Nc2ccc(C)cc2)c2ccccc2O1 (stereo not drawn) [exosin-5316]
Result: 1.80

###

Biological target: ExoS ADPRT activity (Pseudomonas aeruginosa)
Experiment: biochemical
METRIC: Ki (µM)
Answers are plain numbers, in µM.

Query: // Input: CCc1ccc(NC(=O)N2CC(CC)Oc3ccccc32)cc1 (stereo not shown) [exosin] . Output its Ki only.
Result: 33
